- targetEntity: Mu-type opioid receptor (Rattus norvegicus)
- protocolNotes: Binding affinity to Opioid receptor mu 1 in rat brain using [3H]NAL as radioligand
- Assay type: tissue-based
experimentalReadout: Displacement (%)
Give the number; % is assumed, so skip it.

INPUT: Request the reported Displacement associated with C=CCN1CCC2(c3cccc(O)c3)CCCC[C@H]2C1 (single isomer, unassigned; (+))
OUTPUT: 15

INPUT: Request the reported Displacement associated with Oc1cccc(C23CCCC[C@H]2CN(CCc2ccccc2)CC3)c1 (single isomer, unassigned; (+))
OUTPUT: 19

INPUT: Request the reported Displacement associated with Oc1cccc(C23CCCC[C@H]2CN(CC2CC2)CC3)c1 (single isomer, unassigned; (+))
OUTPUT: 4

INPUT: Request the reported Displacement associated with CCCN1CCC2(c3cccc(O)c3)CCCC[C@H]2C1 (single isomer, unassigned; (+))
OUTPUT: 43
